Tested on: 786-0
Test: NCI tumour cell line growth inhibition, 48 h
Active and inactive are the calls of the source. No stated cut-off is given here; in the data, active = GI50 up to about 1.1 µM and inactive = higher.
PARAMETER_MEASURED: GI50

COMPOUND: CCOC(CCCN1CCC2(CC1)C(=O)N(C)CN2c1ccccc1)(OCC)c1ccc(F)cc1
READOUT_VALUE: 14.6 µM (inactive)

COMPOUND: CCOc1ccccc1NC(=O)C(C#N)C1=C(Cl)C(=O)c2ccccc2C1=O (centres undefined)
READOUT_VALUE: 1.79 µM (inactive)

COMPOUND: CC(=O)OC1C[C@@H](C)C2(C[C@H](O)c3ccoc3)C(=O)OC[C@]13C2CCC(O)C31CO1 (some centres undefined)
READOUT_VALUE: > 100 µM (inactive)

COMPOUND: CC(=O)Oc1cc2c(c3ncccc13)OC(C)(C)C2
READOUT_VALUE: 14.6 µM (inactive)

COMPOUND: COc1ccc2c(c1)N=C1CSC(c3cccc(Br)c3)N1C2 (centres undefined)
READOUT_VALUE: 17.4 µM (inactive)

COMPOUND: COC(=O)C1C(O)C(C)C(=O)C(C)/C=C\C=C(C)C(=O)Nc2c(C)c(OC(C)=O)c3c(c2O)C(=O)C(C)=C2OCOC(=C23)C(C)=CC(C)(O)C(O)C(C)C1O (centres undefined)
READOUT_VALUE: 54.6 µM (inactive)

COMPOUND: N#Cc1c(-c2ccccc2)c(C=O)c(=O)n2c1[nH]c1ccccc12
READOUT_VALUE: > 100 µM (inactive)

COMPOUND: Fc1ccc(N2C(=S)SC(=N\c3ccccc3)/C2=N/c2ccccc2)cc1
READOUT_VALUE: > 100 µM (inactive)

COMPOUND: O=C1/C(=C/c2ccc(Cl)cc2)CCC1CN1CCOCC1 (centres undefined)
READOUT_VALUE: 2.48 µM (inactive)

COMPOUND: O=C1/C(=C/c2cccc([N+](=O)[O-])c2)Sc2scc(-c3ccc([N+](=O)[O-])cc3)[n+]21
READOUT_VALUE: 16.4 µM (inactive)

COMPOUND: C=C(CC)C[C@@H]1C[C@]2(C(=O)OC)c3[nH]c4ccccc4c3CCN2C1=O
READOUT_VALUE: 16 µM (inactive)

COMPOUND: CC(C)(C)NC(=O)C12C3C4C1C1C2C3C41C(=O)NC(C)(C)C (centres undefined)
READOUT_VALUE: > 100 µM (inactive)

COMPOUND: Nc1nc(N)c(-c2ccc(Cl)cc2)c(CCC(=O)Nc2cccc(C(F)(F)F)c2)n1
READOUT_VALUE: > 100 µM (inactive)

COMPOUND: O=C(CNc1ccccc1C(=O)O)Nn1cnc2ccc(S(=O)(=O)Nc3ccccc3C(=O)O)cc2c1=O
READOUT_VALUE: > 100 µM (inactive)

COMPOUND: C=C1C(=O)O[C@H]2C1C[C@@H](O)/C(C)=C/CC[C@@]1(C)O[C@H]21 (some centres undefined)
READOUT_VALUE: 10.5 µM (inactive)

COMPOUND: Cc1nc2ccc(F)cc2c2c1CCN2c1ccc(Cl)cc1
READOUT_VALUE: 7.66 µM (inactive)

COMPOUND: O=C(c1ccccc1)[C@H]1Nc2ccc(Cl)cc2[C@H]2CCC[C@@H]12
READOUT_VALUE: 44.9 µM (inactive)

COMPOUND: CC(C)C(C/C=C1\CC(CO)(COC(=O)C(C)(C)C)OC1=O)C(C)C (centres undefined)
READOUT_VALUE: 2.65 µM (inactive)

COMPOUND: Cc1ccc(S(=O)(=O)N/N=C/c2oc(-c3ccncc3)c(-c3ccncc3)c2[N+](=O)[O-])cc1
READOUT_VALUE: > 100 µM (inactive)
